The entries below come with measured IC50 values attached.
Test system: MM.1S
Assay: CCK-8 proliferation, MM.1S
Assay type: cell-based
Settings: Homo sapiens, MM1.S, 72 h, read-out: Inhibitory activity (IC50) on tumor cell proliferation, MM1S
Description: The tumor cells used herein were cultured in a cell culture medium listed in table A1 at 37°C in an incubator with 5% CO2. […] IC50 values of the compounds of the present disclosure (including the compounds in Table 1, and compounds of examples) were measured using the Meilun Cell Counting Kit-8 kit from Dalian Meilun Biotech Co., Ltd. Assay details are as follows: tumor cells were seeded in a 96-well plate at a density listed in Table A2. […]

[[record]]
compound = "CC(C)(C)[Si](C)(C)OCc1ccc(NC2CCC(=O)NC2=O)cn1 (centres unmarked) [GT-07445]"
readout_kind = "IC50"
val = "500 to 1000 nM"


Item CC(C)(C)[Si](C)(C)OCc1ccc(NC2CCC(=O)NC2=O)nc1 (centres unmarked) [GT-07552] was tested on MM.1S; the reported IC50 is 1000 to 5000 nM

====

System: H1975
Experiment: CCK-8 proliferation, NCI-H1975 (H1975)
Assay type: cell-based, Human
Conditions: Homo sapiens, NCI-H1975; CCK-8; 96 hours; read-out: Inhibitory activity (IC50) on tumor cell proliferation, H1975
pIC50: −log10 of the molar value.
The entries below come with measured pIC50 values attached.

The examples below pair each entry with its known result.
[[record]]
compound = "O=C1CCN(c2ccc(CN3CCN(c4ccc(-c5cc(F)c6c(c5)C(=O)N(C(C(=O)Nc5nccs5)c5ncn7c5CCC7)C6)cc4)CC3)nc2)C(=O)N1 (centres unmarked)"
val = "8.00 to 9.00"

[[record]]
compound = "O=C1CCC(c2cc(CN3C[C@H]4C[C@@H]3CN4c3ccc(-c4cc(F)c5c(c4)C(=O)N(C(C(=O)Nc4nccs4)c4ncn6c4CCC6)C5)cc3)ccn2)C(=O)N1 (some centres unmarked)"
val = "8.00 to 9.00"

[[record]]
compound = "CN(C)C(=O)c1cc2cnc(Nc3ccc(N4CCNCC4)cn3)nc2n1C1CCCC1 [Ribociclib, reference compound]"
val = "< 5.00"


Switching to the query record.
Item Cc1nc2c(F)cc(-c3nc(Nc4ccc(N5CCC(N6CCN(Cc7ccnc(N8CCC(=O)NC8=O)c7)CC6)CC5)cn4)ncc3F)cc2n1C(C)C was tested on H1975; the reported pIC50 is 7.00 to 7.30

====

Tested on: MM.1S
Test: CCK-8 proliferation, MM.1S
Type: cell-based
Conditions: Table B10, compounds designed based on the IRAK4 inhibitors; MM.1S cells; read-out: Inhibitory activity (IC50, nM) on tumor cell proliferation, MM.1S
readout-kind: IC50

[[record]]
structure_smiles = "O=C1CCN(c2ccc(CN3CCN(c4ccc5c(c4)nc(NC(=O)c4cccc(C(F)(F)F)c4)n5[C@H]4CC[C@@H](CO)CC4)CC3)cn2)C(=O)N1"
target_of_assay = "MM.1S"
val = "100 to 500 nM"


Switching to the query record.
Entry under test: O=C1CCN(c2ccc(CN3CCC(N4CCN(c5ccc6c(c5)nc(NC(=O)c5cccc(C(F)(F)F)c5)n6[C@H]5CC[C@@H](CO)CC5)CC4)CC3)cn2)C(=O)N1 . Its IC50 was 500 to 1000 nM

====

System: HCC827
Experiment: CCK-8 proliferation, HCC827
Type: cell-based, Human
Details: CCK-8; 96 hours; read-out: Inhibitory activity (IC50) on tumor cell proliferation, HCC827
readout-kind: IC50

Item COc1cc(N2CCC(N3CCN(CCC#Cc4cccc5c4CN(C4CCC(=O)NC4=O)C5=O)CC3)CC2)ccc1Nc1ncc(Cl)c(Nc2ccccc2P(C)(C)=O)n1 (stereo not shown) [HJM-561, reference compound] was tested on HCC827; the reported IC50 is 500 to 1000 nM

====

The entries below come with measured inhibition at 0.5 µM values attached.
Target: human Cereblon WT GST-tagged protein (Homo sapiens, UniProt Q96SW2)
Construct: purchased CISBIO 64BDCRBNPEH
Sequence (Q96SW2 whole entry): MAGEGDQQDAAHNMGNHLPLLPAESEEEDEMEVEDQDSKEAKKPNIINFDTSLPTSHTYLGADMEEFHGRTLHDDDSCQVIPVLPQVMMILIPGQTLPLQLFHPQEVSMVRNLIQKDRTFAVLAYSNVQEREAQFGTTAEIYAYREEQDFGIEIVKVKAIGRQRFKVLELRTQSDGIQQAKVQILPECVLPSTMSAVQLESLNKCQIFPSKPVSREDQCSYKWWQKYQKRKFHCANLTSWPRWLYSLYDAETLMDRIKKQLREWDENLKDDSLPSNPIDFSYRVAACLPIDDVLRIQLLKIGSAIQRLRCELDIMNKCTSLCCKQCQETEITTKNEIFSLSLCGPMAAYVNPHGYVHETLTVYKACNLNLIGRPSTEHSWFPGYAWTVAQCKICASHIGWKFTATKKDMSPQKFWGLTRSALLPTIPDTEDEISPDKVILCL
Assay: CRBN binding, HTRF (CEREBLON BINDING kit)
Settings: Table II-2, CRBN binding screening, HTRF; at 0.5µM; read-out: Inhibition rate (%) at 0.5µM

The examples below pair each entry with its known result.
[[record]]
compound = "CC(C)(O)c1cc2nn(C3CCN(Cc4cc(C5CCC(=O)NC5=O)cnc4F)CC3)cc2cc1NC(=O)c1cccc(C(F)(F)F)n1 (stereo not drawn)"
val = "60 to 80%"

[[record]]
compound = "O=C1CCN(c2cnc(CN3C[C@H]4C[C@@H]3CN4c3ccc(-c4cc(F)c5c(c4)C(=O)N(C(C(=O)Nc4nccs4)c4ncn6c4CCC6)C5)cc3)cn2)C(=O)N1 (stereo partly drawn)"
val = "10 to 20%"

[[record]]
compound = "CC(C)(O)c1cc2nn(C3CCN(Cc4cncc(C5CCC(=O)NC5=O)c4)CC3)cc2cc1NC(=O)c1cccc(C(F)(F)F)n1 (stereo not drawn)"
val = "30 to 40%"

[[record]]
compound = "C[C@@H]1CNC(=O)c2cc3ccc(C(=O)Nc4cnn(Cc5ccc(N6CCC(N7CCN(Cc8cc(C9CCC(=O)NC9=O)cnc8F)CC7)CC6)cc5)c4)nc3n21 (stereo partly drawn)"
val = "30 to 40%"

[[record]]
compound = "COc1cc2nn(C3CCN(Cc4ccc(C5CCC(=O)NC5=O)cn4)CC3)cc2cc1NC(=O)c1cccc(C(F)(F)F)n1 (stereo not drawn)"
val = "10 to 20%"


Switching to the query record.
Item CC(C)Nc1cc(-n2ccc3cc(C#N)cnc32)ncc1C(=O)NC1CCN(Cc2cc(C3CCC(=O)NC3=O)cnc2F)CC1 (stereo not drawn) was tested on human Cereblon WT GST-tagged protein (Homo sapiens, UniProt Q96SW2); the reported inhibition at 0.5 µM is 53 to 60%

====

Tested on: DU-145
Test: CCK-8 proliferation, DU-145
Assay type: cell-based
Details: Homo sapiens, 96 hours, read-out: Inhibitory activity (IC50) on tumor cell proliferation, DU-145
pIC50: −log10 of the molar value.
The entries below come with measured pIC50 values attached.

[[record]]
compound = "Cn1ncc(-c2nc(NC3CCN(Cc4ccc(C5CCC(=O)NC5=O)c(F)c4)CC3)ncc2Cl)c1CC1CC1 (stereo not drawn) [GT-04051]"
val = "6.30 to 7.00"

[[record]]
compound = "O=C1CCN(c2cccc(COc3ccc(Cl)cc3-c3nc4cc(C(F)(F)F)cc(Cl)c4[nH]3)c2)C(=O)N1 [GT-06480]"
val = "6.30 to 7.00"


Entry under test: Cn1ncc(-c2nc(NC3CCN(Cc4ccc(C5CCC(=O)NC5=O)cc4)CC3)ncc2Cl)c1CC1CC1 (stereo not drawn) [GT-04050] . Its pIC50 was 7.30 to 8.00

====

Tested on: SW620
Assay: CCK-8 proliferation, SW620
Type: cell-based
Conditions: Homo sapiens, SW-620; CCK-8; 96 hours; read-out: Inhibitory activity (IC50) on tumor cell proliferation, SW620
pIC50: −log10 of the molar value.
readout-kind: pIC50

The examples below pair each entry with its known result.
[[record]]
compound = "CNC(=O)c1ccccc1Nc1cc(Nc2ccc(N3CCN(Cc4ccc(C5CCC(=O)NC5=O)c(F)c4)CC3)cc2OC)ncc1C(F)(F)F (stereo not shown)"
readout_kind = "pIC50"
val = "6.00 to 6.30"

[[record]]
compound = "Cc1ccc(-c2c(C)noc2C)cc1N(CC1CCN(Cc2ccc(C3CCC(=O)NC3=O)cc2)CC1)c1ccc(C2(C#N)CC2)cc1 (stereo not shown)"
readout_kind = "pIC50"
val = "6.00 to 6.30"

[[record]]
compound = "NC(=O)c1ncc(N2CCCCC2)nc1Nc1ccc(C2CCN(Cc3ccc(N4CCC(=O)NC4=O)cc3F)CC2)cc1"
readout_kind = "pIC50"
val = "6.00 to 6.30"


Switching to the query record.
Entry under test: O=C1CC[C@H](N2Cc3cc(N4CCN(CC5CCN(c6ccc([C@@H]7c8ccc(O)cc8CC[C@@H]7c7ccccc7)cc6)CC5)CC4)ccc3C2=O)C(=O)N1 [ARV-471, reference compound] . Its pIC50 was 5.30 to 6.00

====

Test system: H1975
Assay: CCK-8 proliferation, NCI-H1975 (H1975)
Type: cell-based, Human
Conditions: Homo sapiens, NCI-H1975; CCK-8; 96 hours; read-out: Inhibitory activity (IC50) on tumor cell proliferation, H1975
The entries below come with measured IC50 values attached.

Entry under test: Cc1nc2c(F)cc(-c3nc(Nc4ccc(N5CCC(N6CCN(Cc7cc(N8CCC(=O)NC8=O)ncc7F)CC6)CC5)cn4)ncc3F)cc2n1C(C)C [GT-07486] . Its IC50 was 50 to 100 nM

Entry under test: O=C1CCC(Nc2cccc(CN3C[C@@H]4C[C@H]3CN4c3ccc(-c4cc(F)c5c(c4)C(=O)N(C(C(=O)Nc4nccs4)c4ncn6c4CCC6)C5)cc3)c2)C(=O)N1 (stereo partly drawn) [GT-05118] . Its IC50 was 50 to 100 nM

Entry under test: O=C1CCN(c2ccc(CN3C[C@H]4C[C@@H]3CN4c3ccc(-c4cc(F)c5c(c4)C(=O)N(C(C(=O)Nc4nccs4)c4ncn6c4CCC6)C5)cc3)cn2)C(=O)N1 (stereo partly drawn) [GT-06191] . Its IC50 was 1 to 10 nM

Entry under test: CN(Cc1cccc(N2CCC(=O)NC2=O)c1)C1CCN(c2ccc(-c3cc(F)c4c(c3)C(=O)N(C(C(=O)Nc3nccs3)c3ncn5c3CCC5)C4)cc2)CC1 (stereo not drawn) [GT-05281] . Its IC50 was 1 to 10 nM

Entry under test: O=C1CCN(c2ccc(CN3CCN(C4CCN(c5ccc(-c6cc(F)c7c(c6)C(=O)N(C(C(=O)Nc6nccs6)c6ncn8c6CCC8)C7)cc5)CC4)CC3)nc2)C(=O)N1 (stereo not drawn) [GT-06246] . Its IC50 was 1 to 10 nM
